assayed-target: T1, variant human BR3-Fc fusion
T1 construct: produced in CHO cells; also called vBR3-Fc; vhBR3-Fc
assay-text: SPR, vBR3-Fc on chip;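 further: Anti-BR3 antibodies passed over chip-bound BR3-Fc in PBS with 0.05% polysorbate 20, on and off rates fitted together globally to a 1:1 binding model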
Collected kon values appear next to each entry.
Output spec: scalar in M⁻¹ s⁻¹, unitless text.

>  <binder>
Hu2.1-RL Fab (Fab, V domains shown, Fab) VH: EVQLVESGGGLVQPGGSLRLSCAASGDSITRGYWNWVRQAPGKGLEWVGYINYSGTTYYNPSLKSRFTISRDTSKNTLYLQMNSLRAEDTAVYYCATPHTYGAMDYWGQGTLVTVSS VL: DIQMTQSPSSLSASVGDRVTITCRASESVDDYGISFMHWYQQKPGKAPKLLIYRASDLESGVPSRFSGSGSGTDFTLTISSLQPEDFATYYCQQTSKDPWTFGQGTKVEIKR

>  <unit-symbol>
M⁻¹ s⁻¹

>  <kon>
120000

$$$$

I'd like to know its kon. The binder in question is Hu9.1-88 Fab (Fab, V domains shown, Fab) VH: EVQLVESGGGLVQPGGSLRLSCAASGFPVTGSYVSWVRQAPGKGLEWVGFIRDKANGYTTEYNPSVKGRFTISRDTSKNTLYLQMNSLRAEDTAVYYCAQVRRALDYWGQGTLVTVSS VL: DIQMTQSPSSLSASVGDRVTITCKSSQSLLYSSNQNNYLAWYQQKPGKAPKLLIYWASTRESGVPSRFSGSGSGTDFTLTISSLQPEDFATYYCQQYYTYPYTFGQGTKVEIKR 541000

I'd like to know its kon. The binder in question is Hu2.1-46 Fab (Fab, V domains shown, Fab) VH: EVQLVESGGGLVQPGGSLRLSCAASGDSITRGYWNWVRQAPGKGLEWVGYINYSGTTYYNPSLKSRFTISRDTSKNTFYLQMNSLRAEDTAVYYCANSNFYGAMDYWGQGTLVTVSS VL: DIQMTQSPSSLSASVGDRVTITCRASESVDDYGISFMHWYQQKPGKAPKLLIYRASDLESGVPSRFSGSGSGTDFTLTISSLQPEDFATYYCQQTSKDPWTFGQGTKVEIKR 1.96e+06

I'd like to know its kon. The binder in question is Hu11G9-46 IgG (antibody, V domains shown, humanized IgG) VH: EVQLVESGGGLVQPGGSLRLSCAASGDSITSGYWNWVRQAPGKGLEWVGYISYSGSTYYNPSLKSRFTISRDTSKNTFYLQMNSLRAEDTAVYYCAGLNDLYLYFDVWGQGTLVTVSS VL: DIQMTQSPSSLSASVGDRVTITCRSSQSLVHSNGNTYLHWYQQKPGKAPKLLIYKVSNRFSGVPSRFSGSGSGTDFTLTISSLQPEDFATYYCSQSTHVPPFTFGQGTKVEIKR 648000

I'd like to know its kon. The binder in question is Hu2.1-46 IgG (antibody, V domains shown, humanized IgG; also called h2.1-46) VH: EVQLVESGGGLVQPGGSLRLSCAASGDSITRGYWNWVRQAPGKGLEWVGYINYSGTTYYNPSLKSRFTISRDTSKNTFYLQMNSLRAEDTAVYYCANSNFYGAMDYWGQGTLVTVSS VL: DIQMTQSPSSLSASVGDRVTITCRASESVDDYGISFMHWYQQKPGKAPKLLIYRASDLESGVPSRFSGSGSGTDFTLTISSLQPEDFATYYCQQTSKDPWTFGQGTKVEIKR 978000
